Assay: physchem

# SMILES_REPRESENTATION, logP
rows = [
    ("O=C(Cc1ccc(Cl)cc1)Nc1cc([N+](=O)[O-])ccc1F", 3.47),
    ("Cc1ccc([N+](=O)[O-])c(NC(=O)Cc2ccc(F)cc2)c1", 3.27),
    ("Nc1ccc(F)c(NC(=O)Cc2ccc(Cl)cc2)c1", 2.7),
    ("Cc1ccc(N)c(NC(=O)Cc2ccc(F)cc2)c1", 2.63),
]
